Tested on: NCI-H322M lung
Assay: NCI-60 one-dose screen, 48 h
Conditions: 10 µM unless noted
Compounds without any hit were thinned out: in the full panel of roughly 83,000, 20% have a hit. Activity calls are given as the source filed them. Rule for the calls: active = growth percent below 10; inactive = the rest.
Pick from active, inactive when you respond.

Illustrative cases are given below, each with its answer.
INSERT INTO measurements (compound, assayed_target, group) VALUES
  ('CCCCCCCCn1cc(C2=C(c3coc4ccc(OC)cc34)C(=O)NC2=O)c2ccccc21', 'NCI-H322M lung', 'inactive'),
  ('C=C1C(=O)O[C@H]2[C@H]1CC/C(COC(=O)/C=C\C(=O)NCc1ccc(Cn3c(=O)sn(CCCI)c3=O)cc1)=C\CC[C@@]1(C)O[C@@H]21', 'NCI-H322M lung', 'inactive'),
  ('O=c1[nH]c(NCc2nnnn2-c2ccc(Br)cc2)nc2sc3c(c12)CCCC3', 'NCI-H322M lung', 'inactive'),
  ('O=S(=O)(Cc1ccccc1)c1nc2ccccc2s1', 'NCI-H322M lung', 'inactive'),
  ('CC(=O)Nc1ccc(C(=O)/C=C/c2ccccc2)cc1', 'NCI-H322M lung', 'inactive');

Task item: What did this assay record as the result for C=C1c2c(C)nn(-c3ccc(S(N)(=O)=O)cc3)c2N(C)C23CC1C1(C)c4c(C)nn(-c5ccc(S(N)(=O)=O)cc5)c4N(C)C(C)(CC12)C3 (stereo unspecified) ?
Reply: inactive

Task item: What did this assay record as the result for Cl.[Pt].[c-]1ccccc1-c1ccccn1.c1ccc(P(c2ccccc2)C([PH+](c2ccccc2)c2ccccc2)[PH+](c2ccccc2)c2ccccc2)cc1 ?
Reply: inactive

Task item: What did this assay record as the result for CCN(CC)CCCC(C)NCc1ccccc1 (stereo unspecified) ?
Reply: inactive

Task item: What did this assay record as the result for Cc1cnc(Nc2ccc(OCCN3CCCC3)cc2)nc1NCc1ccco1 ?
Reply: inactive

Task item: What did this assay record as the result for COc1cc2c(cc1OC)-c1ccc3cc4c(cc3c1N(CCCn1ccnc1)C2)OCO4 ?
Reply: inactive

Task item: What did this assay record as the result for CCCN1CCN(c2ccc3nc(-c4ccc5nc(-c6ccc(OCC)c(OCC)c6)[nH]c5c4)[nH]c3c2)CC1 ?
Reply: active

====

System: UACC-257 melanoma
Experiment: NCI-60 one-dose screen, 48 h (100 = growth as untreated, 0 = no growth, -100 = all killed)
Settings: 10 µM unless noted
This is part of a sample that, as a whole, favours compounds with a hit. Of some 83,000 tested, about 20% had one in any assay. Calls of active or inactive are those of the source. The calls were made as follows: active = growth percent below 10; inactive = the rest.
PROPERTY: growth

INSERT INTO assay_data (smiles_str, value_measured) VALUES
  ('CSc1nc2sc3cc(Cl)ccc3n2c(=N)c1C#N', '45.7% (inactive)'),
  ('COc1ccc(Oc2nc(Nc3ccc(N4CCCCC4)nc3)ncc2NC(=O)c2cc(OC)cc(OC)c2)cc1', '59.4% (inactive)');

Attention now shifts to the item below.
Task item: Consider the compound C[C@]12CCC(=O)C[C@H]1CC[C@@H]1[C@@H]2CC[C@@]2(C)[C@H]1CC[C@]2(O)C(=O)CO and give its measured growth.
Reply: 129% (inactive)

====

System: HOP-92 NSCLC
Assay: NCI-60 one-dose screen, 48 h
Details: 10 µM unless noted
The panel holds about 83,000 compounds, 20% with a hit somewhere; the sample as a whole holds those more often. The source made the active and inactive calls. The calls were made as follows: active = growth percent below 10; inactive = the rest.
Pick from yes (1) (active), no (0) (inactive) when you respond.

Task item: What did this assay record as the result for CN(C)c1ccc(C#Cc2c(F)cccc2Cl)cc1 ?
Reply: no (0)

Task item: What did this assay record as the result for COc1ccc(/C=C2\COc3ccc(O)cc3C2=O)cc1OC ?
Reply: no (0)

Task item: What did this assay record as the result for NC(=O)c1c(NC(=O)c2ccccn2)sc2c1CCC(=O)C2 ?
Reply: no (0)

====

Tested on: LOX IMVI melanoma
Experiment: NCI-60 one-dose screen, 48 h
Details: 10 µM unless noted
Method: Growth inhibition of the LOX IMVI human tumor cell line is measured as a screen for anti-cancer activity. Cells are grown in 96 well plates and exposed to the test compound for 48 hours. Compounds are tested at a single concentration, which is 10^-5 M for most compounds. The reported endpoint is percent growth (GI% or GIPRCNT), where numbers from 0 - 100% represent growth inhibition, and numbers from -100% - 0 represent cell death. For example, a value of 40 represents 60% growth inhibition. […]
About 83,000 compounds went through this panel and 20% of them were active in at least one assay; those are over-represented in the sample as a whole. Activity calls are given as the source filed them. The calls were made as follows: active = growth percent below 10; inactive = the rest.
Pick from active, inactive when you respond.

Illustrative cases are given below, each with its answer.
INSERT INTO results (compound, group) VALUES
  ('Nc1nc(Nc2ccc(Cl)cc2)nn1S(=O)(=O)c1ccc(-c2ccc(F)cc2)cc1', 'inactive'),
  ('O=C(/C=C/C12c3ccccc3C(c3ccccc31)C1C(=O)NC(=O)C12)c1ccc(Cl)cc1 (stereo unspecified)', 'active'),
  ('CCCCCCN(CCCCCC)CC(O)c1cccc2ccc(Cl)cc12 (stereo unspecified)', 'inactive'),
  ('COc1ccc(Cn2cnc3cc(C(=O)Nc4cccc5ccccc45)ccc32)c(OC)c1', 'inactive'),
  ('O[C@H]1CO[C@H]2[C@@H]1OC[C@@H]2Oc1ccc(Nc2ccnc(Nc3ccc(O[C@H]4CO[C@H]5[C@@H]4OC[C@@H]5O)c(Cl)c3)n2)cc1Cl', 'active'),
  ('CN(C)CCOC(=O)Nc1ccc(Cl)cc1', 'inactive'),
  ('CN(C)c1ccc(C#Cc2c(F)cccc2Cl)cc1', 'inactive'),
  ('CO/C(=C1/NC(=O)C(Cc2ccc(O)c(Br)c2)N(C)C(=O)C(C)NC(=O)CCC/C=C(\C)CCC(C)OC1=O)c1ccccc1 (stereo unspecified)', 'active'),
  ('N#Cc1c(Oc2ccc([N+](=O)[O-])cc2)nc2sc3cc(Cl)ccc3n2c1=N', 'inactive'),
  ('CCOC(=O)c1nnn(-c2ccccc2)c1C1=CN(C)CCC1', 'inactive');

Task item: What did this assay record as the result for C=CCOc1cccc(/C=C2\SC(=Nc3ccc(O)cc3)NC2=O)c1 ?
Reply: active

Task item: What did this assay record as the result for CCc1nc2ccccc2[nH]1 ?
Reply: inactive

Task item: What did this assay record as the result for COc1ccc2c(c1)/C(=C\c1sc(=S)[nH]c1O)C(C(=O)O)=N2 ?
Reply: inactive

Task item: What did this assay record as the result for CCOC(=O)c1ccc(-c2ccc3cc(OC)ccc3c2)nc1C ?
Reply: inactive

Task item: What did this assay record as the result for COc1cccc(CCC2CCCN(c3cc(C)nc(N)n3)C2)c1 (stereo unspecified) ?
Reply: inactive

====

System: NCI-H322M lung
Experiment: NCI-60 one-dose screen, 48 h (100 = growth as untreated, 0 = no growth, -100 = all killed)
Details: 10 µM unless noted
Compounds without any hit were thinned out: in the full panel of roughly 83,000, 20% have a hit.
Rule: growth below 90% gives true. Equal to or above 90% gives false.

INSERT INTO assay_data (smiles_str, group) VALUES
  ('CCOC(=O)c1sc(-c2ccc(OS(=O)(=O)c3ccc(C(C)(C)C)cc3)c(C=O)c2)nc1C', 'false'),
  ('CC(=O)OCCc1ccccc1', 'false'),
  ('COc1ccc(OC)c(Nc2nc3nonc3nc2Nc2cc(OC)ccc2OC)c1', 'true'),
  ('CCCCCCNCc1cc(C(C)(C)C)cc(CNCCCCCC)c1O', 'true');

Now let's try a different one.
Task item: Report whether reported growth is lower than 90% (strictly) for Cc1nc(Nc2ccccn2)sc1C(=O)/C=C/c1ccc(Br)cc1
Reply: true

====

Tested on: 786-0 renal
Test: NCI-60 one-dose screen, 48 h
Conditions: 10 µM unless noted
Compounds without any hit were thinned out: in the full panel of roughly 83,000, 20% have a hit. Calls of active or inactive are those of the source. How the source made its calls: active means growth percent below 10; inactive means the rest.
Pick from YES = active, NO = inactive when you respond.

INSERT INTO results (molecule, assayed_target, group) VALUES
  ('CCOC(=O)c1cnn2c(-c3ccc(Cl)cc3)nc(NCc3ccccc3)nc12', '786-0 renal', 'YES'),
  ('C=C(C=O)C1CCC2(C(=O)O)CCC3(C)C(CCC4C5(C)CCC(O)C(C)(C)C5CCC43C)C12 (stereo unspecified)', '786-0 renal', 'YES'),
  ('C[C@]12CCC(=O)C[C@H]1CC[C@@H]1[C@@H]2CC[C@@]2(C)[C@H]1CC[C@]2(O)C(=O)CO', '786-0 renal', 'NO');

Task item: What did this assay record as the result for COc1ccccc1C(=O)NC(=S)Nc1ccc(-c2nc3ccccc3[nH]2)cc1 ?
Reply: NO

Task item: What did this assay record as the result for CN1CCN(C(=O)[C@]23CCC(C)(C)C[C@@H]2C2=CC[C@@H]4[C@@]5(C)Cc6c([nH]c7ccccc67)C(C)(C)[C@@H]5CC[C@@]4(C)[C@]2(C)CC3)CC1 ?
Reply: NO

Task item: What did this assay record as the result for CC(/C=N/NC(=O)c1cc(-c2ccco2)[nH]n1)=C\c1ccccc1 ?
Reply: YES

Task item: What did this assay record as the result for COc1cc2c(cc1OC)-c1ccc3cc4c(cc3c1N(CCCn1ccnc1)C2)OCO4 ?
Reply: NO
